Target: Histone deacetylase
Experiment: Inhibition of HDAC in rat liver homogenate
Assay type: tissue-based
// IC50 lookup, one value per entry
Give just the numeric value; µM need not be written.

Sample records with IC50:
| molecule | unit string | IC50 |
| --- | --- | --- |
| O=C(CCCCCC[S+]([O-])c1ccc(Cl)cc1)NO (centres undefined) | µM | 0.38 |
| O=C(CCCCCSc1ccc(Cl)cc1)NO | µM | 0.26 |
| O=C(CCCCCSc1ccccc1)NO | µM | 0.12 |

For the next question, use this molecule.
[ask] Fill blank: measured IC50 of the molecule O=C(CCCCCS(=O)(=O)c1ccccc1)NO is ____.
[reply] 0.04

Sourced from ChEMBL document CHEMBL1147749
